Molecular target: FKBP12 (Homo sapiens)
Assay: Rotamase inhibition assay (N-succinyl-Ala-Ala-Pro-Phe-p-nitroanilide, chymotrypsin-coupled)
Type: biochemical
Details: Table 1; read-out: Rotamase Ki(app)
Experimental: In the rotamase inhibition assay, isomerization of an artificial substrate N-succinyl-Ala-Ala-Pro-Phe-p-nitroanilide is followed spectrophotometrically. The assay includes the cis form of the substrate, FKBP12, the compound being tested, and chymotrypsin. Chymotrypsin is able to cleave p-nitroaniline from the trans form of the substrate, but not from the cis form. Release of p-nitroaniline is measured spectrophotometrically. […]
Provide the recorded Ki for the entries that follow.
Give bare numbers, in µM.

query: Please report the recorded Ki for "CCC(C)(C)NS(=O)(=O)N1CCCC[C@H]1C(=O)OCCCCc1ccccc1" .
result: 0.193

query: Please report the recorded Ki for "CCC(C)(C)NS(=O)(=O)N1CCCC[C@H]1C(=O)OC(CCCc1ccccc1)CCCc1ccccc1" .
result: 6.99

query: Please report the recorded Ki for "CCC(C)(C)NS(=O)(=O)N1CCC[C@H]1C(=O)OCCCc1cccnc1" .
result: 2.79

Answer for every listed entry: what is its Ki? The entries follow.
1. COc1cc(NS(=O)(=O)N2CCCC[C@H]2C(=O)OC(CCCc2ccccc2)CCCc2ccccc2)cc(OC)c1OC
2. COc1cc(NS(=O)(=O)N2CCCC[C@H]2C(=O)OCCCCc2ccccc2)cc(OC)c1OC
3. O=C(OCCCCc1ccccc1)[C@@H]1CCCCN1S(=O)(=O)Nc1ccccc1

result:
[0.382, 0.2, 1.16]

* * *

molecular target: FKBP12 (Homo sapiens, UniProt P62942); test: Affinity for FKBP-12 (Ki), succinyl-Ala-Leu-Pro-Phe-pNA chymotrypsin-coupled assay; type: biochemical; conditions: Table 2; read-out: FKBP12 Kiapps
Sequence (P62942 whole entry, species assumed): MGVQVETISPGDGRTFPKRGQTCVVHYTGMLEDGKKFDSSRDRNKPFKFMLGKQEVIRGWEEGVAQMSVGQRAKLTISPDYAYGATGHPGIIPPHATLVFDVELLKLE
Rule for this label: Y means Ki is less than 2000 nM; N means Ki is at least 2000 nM.

query: A record lists "COc1ccc2nc(NS(=O)(=O)N3CCCC[C@H]3C(=O)OCCCCc3ccccc3)sc2c1" . Is its Ki below 2000 nM?
result: N

query: A record lists "COc1cc(NS(=O)(=O)N2[C@H]3CC[C@H](C3)[C@H]2C(=O)OCCCCc2ccccc2)cc(OC)c1OC" . Is its Ki below 2000 nM?
result: Y

query: A record lists "O=C(OC(COCc1ccccc1)COCc1ccccc1)[C@@H]1CCCCN1S(=O)(=O)Nc1cccnc1" . Is its Ki below 2000 nM?
result: Y

Continue with the compound presented below.
query: A record lists "O=C(OCCCCc1ccccc1)[C@@H]1CCCCN1S(=O)(=O)Nc1ccc2[nH]c(=O)[nH]c2c1" . Is its Ki below 2000 nM?
result: Y

* * *

target: UniProt:P62942; experiment: Affinity for FKBP-12 (Ki), succinyl-Ala-Leu-Pro-Phe-pNA chymotrypsin-coupled assay; format: biochemical; conditions: Table 2; read-out: FKBP12 Kiapps
Provide the recorded pKi for the entries that follow.
Answers are plain numbers, as −log10 of the molar value.

Solved entries (count: 5):
query: Please report the recorded pKi for NC(=O)C1CCCN(S(=O)(=O)N2CCCC[C@H]2C(=O)OCCCCc2ccccc2)C1 (some centres unmarked) .
result: 6.03

query: Please report the recorded pKi for "Cc1ccc(NS(=O)(=O)N2CCCC[C@H]2C(=O)OC(COCc2ccccc2)COCc2ccccc2)cn1" .
result: 7.06

query: Please report the recorded pKi for "O=C(OCCCCc1ccccc1)[C@@H]1CCCCN1S(=O)(=O)Nc1ccc2nc[nH]c2c1" .
result: 6.32

query: Please report the recorded pKi for "COc1cc(NS(=O)(=O)N2CCCC[C@H]2C(=O)N[C@H](COCc2cccnc2)C(C)C)cc(OC)c1OC" .
result: 7.39

query: Please report the recorded pKi for "COc1ccc(N(C)S(=O)(=O)N2CCCC[C@H]2C(=O)OCCCCc2ccccc2)cc1" .
result: 4.72

Answer for every listed entry: what is its pKi? The entries follow.
1. COc1cccc(NS(=O)(=O)N2CCCC[C@H]2C(=O)OCCCCc2ccccc2)c1
2. CN(C)S(=O)(=O)N1CCCC[C@H]1c1nnc(Cc2ccccc2)o1

result:
6.66
3.97

Answer for every listed entry: what is its pKi? The entries follow.
1. O=C(NCCCc1ccccc1)[C@@H]1CCCN1S(=O)(=O)Nc1cccnc1
2. COc1cc(NS(=O)(=O)N2CCCC[C@H]2C(=O)OCc2ccccc2)cc(OC)c1OC
3. COc1ccc(NS(=O)(=O)N2CCCC[C@H]2C(=O)OCCCCc2ccccc2)cn1

result:
1. 4.77
2. 6.40
3. 7.10

* * *

Target: FKBP12 (Homo sapiens, UniProt P62942)
Experiment: Affinity for FKBP-12 (Ki), succinyl-Ala-Leu-Pro-Phe-pNA chymotrypsin-coupled assay
Type: biochemical
Details: Table 2; read-out: FKBP12 Kiapps
Method: In a quartz cuvette, a final 1 mL buffer concentration was reached (50 mM Hepes, 100 mM NaCl, pH 8.0). Within this final reaction volume, 3.5 μL […] FKBP-12 (in 50 mM Hepes, 100 mM NaCl, pH 8.0) and 10 μL test compound in DMSO were added. […] The absorbance at 390 nm versus time was monitored for up to 400 seconds. Rate constants were determined from the absorbance versus time plots generated.
Provide the recorded pKi for the entries that follow.
Numbers only, as −log10 of the molar value.

query: Please report the recorded pKi for "COc1ccc(N(C)S(=O)(=O)N2CCCC[C@H]2c2nnc(Cc3ccccc3)o2)cc1" .
result: 4.17

query: Please report the recorded pKi for "O=C(OCCCCc1ccccc1)[C@@H]1CCCCN1S(=O)(=O)Nc1ccc(C(F)(F)F)nc1" .
result: 6.36

Answer for every listed entry: what is its pKi? The entries follow.
1. CCC(C)(C)NS(=O)(=O)N1CCCC[C@H]1C(=O)OCc1ccccc1
2. COC(OC)c1ccn(S(=O)(=O)N2CCCC[C@H]2C(=O)OCCCCc2ccccc2)n1
3. CCC(C)(C)NS(=O)(=O)N1CCC[C@H]1C(=O)NCCCc1cccnc1
4. O=C(OCCCCc1ccccc1)C1CSCCN1S(=O)(=O)Nc1ccccc1 (stereo not drawn)

result:
1. 6.17
2. 5.54
3. 5.95
4. 5.28

Answer for every listed entry: what is its pKi? The entries follow.
1. C[C@@H]1CN(S(=O)(=O)N2CCCC[C@H]2C(=O)OCc2ccccc2)C[C@H](C)O1
2. COc1ccc(NS(=O)(=O)N2CCCC[C@H]2C(=O)OCc2ccccc2)cn1
3. O=C(OCCCCc1ccccc1)C1CSCCN1S(=O)(=O)Nc1ccc2[nH]c(=O)[nH]c2c1 (stereo not drawn)
4. COc1cc(NS(=O)(=O)N2CCCC[C@H]2C(=O)CCCCCc2ccccc2)cc(OC)c1OC

result:
1: 6.08; 2: 6.12; 3: 6.02; 4: 5.89

Answer for every listed entry: what is its pKi? The entries follow.
1. COc1cc(NS(=O)(=O)N2CCCC[C@H]2C(=O)OC(COCc2ccccc2)COCc2ccccc2)c(OC)cc1Cl
2. O=C(OCCCc1cccnc1)[C@@H]1CCCN1S(=O)(=O)Nc1ccccc1

result:
1: 5.15; 2: 5.40

* * *

Provide the recorded Ki for the entries that follow.
target: FKBP12 (Homo sapiens); assay: Affinity for FKBP-12 (Ki), succinyl-Ala-Leu-Pro-Phe-pNA chymotrypsin-coupled assay; format: biochemical; conditions: Table 2; read-out: FKBP12 Kiapps
One number for each entry, in µM.

Solved entries (count: 3):
query: Provide value of Ki for this record tested with FKBP12 (Homo sapiens): COc1cc(NS(=O)(=O)N2CCCC[C@H]2C(=O)OCCCCc2ccccc2)cc(OC)c1 [Compound 48]
result: 0.344

query: Provide value of Ki for this record tested with FKBP12 (Homo sapiens): CCC(C)(C)NS(=O)(=O)N1CCC[C@H]1COC(=O)N(CCc1ccccc1)Cc1ccccc1 [Compound 113]
result: 33

query: Provide value of Ki for this record tested with FKBP12 (Homo sapiens): COc1ccc(N(C)S(=O)(=O)N2CCCC[C@H]2C(=O)OCCCCc2ccccc2)cc1[N+](=O)[O-] [Compound 54]
result: 26

Answer for every listed entry: what is its Ki? The entries follow.
1. O=C(OCCCCc1ccccc1)[C@@H]1CCCCN1S(=O)(=O)Nc1ccc(N2CCOCC2)nc1 [Compound 94]
2. COc1ccc(NS(=O)(=O)N2CCCC[C@H]2C(=O)OC(COCc2ccccc2)COCc2ccccc2)cn1 [Compound 103]
3. COc1cc(NS(=O)(=O)N2CCCC[C@H]2c2nnc(Cc3ccccc3)o2)cc(OC)c1OC [Compound 78]
4. O=C(OCCCCc1ccccc1)[C@@H]1CCCCN1S(=O)(=O)Oc1ccccc1 [Compound 13]
5. O=S(=O)(Nc1ccccc1)N1CCCC[C@H]1c1nnc(Cc2ccccc2)o1 [Compound 76]
6. O=C(OCCCCc1ccccc1)[C@@H]1CCCCN1S(=O)(=O)Nc1ccc(N2CCOCC2)cc1 [Compound 42]

result:
0.208
0.039
5.2
6.5
1.3
0.266

Answer for every listed entry: what is its Ki? The entries follow.
1. O=C(OCCCCc1ccccc1)[C@@H]1CCCCN1S(=O)(=O)Nc1cc(F)c(F)c(F)c1 [Compound 95]
2. O=C(OCCCCc1ccccc1)[C@@H]1CCCCN1S(=O)(=O)Nn1cccc1 [Compound 47]
3. COc1cc(NS(=O)(=O)N2CCCC[C@H]2C(=O)NCCCN2CCCCC2)cc(OC)c1OC [Compound 91]

result:
[0.435, 1.6, 1.3]
